tested on: RBM10 RRM1-ZnF (GST-tagged construct); assay: RNAcompete 7-mer binding Z-score; higher = stronger binding preference;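 note: 20 pmol protein with 1.5 nmol RNA pool for 30 min at 4°C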
Over roughly 16,000 sequences, “Z-score” has its median near -0.37; the highest 2% begin near 3.2. The sample holds the highest values, similar sequences and a random draw of the others, so the mix is not that of the screen.
Decision: RNAcompete 7-mer binding Z-score >= 1 yields T, all other cases yield F.

Please review the entries below; each comes with its answer.
sequence_text=AGAUGUG class_name=F
sequence_text=AUGGACG class_name=T
sequence_text=GUCCGGA class_name=F
sequence_text=GGAUGAG class_name=T
sequence_text=UUCCGGC class_name=F

Lookup: Entry `AGAUGAG` : is its RNAcompete 7-mer binding Z-score no less than 1?
Found: T

Lookup: API: above_or_equal(metric=RNAcompete 7-mer binding Z-score, cutoff=1) for item `GGAUGAA`
Found: T

Lookup: Quick check, RNAcompete 7-mer binding Z-score >= 1? `AUAAAGU`
Found: F

Lookup: Check if RNAcompete 7-mer binding Z-score >= 1 (inclusive). Item: `CACGCGC`
Found: F
